# System: Escherichia coli TOP10
# Protocol Notes: shrunken log2 fold change of peptide-encoding DNA abundance (4.5 h post-induction vs induction); higher = less antimicrobial activity (less host growth inhibition)
# Condition: time post-induction: 4.5 h; library: site-saturation at positions 5, 18, 19, 20
Measured Metric: shrunken log2 fold change
// return a plain number; no unit text

Qu. Tell me the measured shrunken log2 fold change of "RRIRCRPPRLPRPRPRPICWPRP" , please.
Ans. 0.202

Qu. What measured shrunken log2 fold change goes with "RRIRARPPRLPRPRPRPSFDPRP" ?
Ans. 0.103

Qu. // shrunken log2 fold change lookup, key: "RRIRRRPPRLPRPRPRPEDQPRP"
Ans. 0.196

---

Please provide measured shrunken log2 fold change for the entries that follow.
# Test system: Escherichia coli TOP10
# Protocol Notes: shrunken log2 fold change of peptide-encoding DNA abundance (4.5 h post-induction vs induction); higher = less antimicrobial activity (less host growth inhibition)
# Condition: time post-induction: 4.5 h; library: site-saturation at positions 5, 18, 19, 20
Please give only the number in your answer, with no unit.

Qu. // map "RRIRWRPPRLPRPRPRPTCNPRP" to recorded shrunken log2 fold change (system: Escherichia coli TOP10)
Ans. 0.0836

Qu. What reported shrunken log2 fold change corresponds to "RRIRMRPPRLPRPRPRPVYPPRP" on Escherichia coli TOP10?
Ans. 0.166

Qu. # query: shrunken log2 fold change | item "RRIRYRPPRLPRPRPRPADEPRP" | system: Escherichia coli TOP10
Ans. -0.451

Qu. What measured shrunken log2 fold change is associated with "RRIRIRPPRLPRPRPRPFWFPRP" on Escherichia coli TOP10?
Ans. -0.684

Qu. Identify the measured shrunken log2 fold change of "RRIRARPPRLPRPRPRPDGGPRP" for Escherichia coli TOP10.
Ans. 0.432

Qu. Item: "RRIRWRPPRLPRPRPRPRCGPRP" Test system: Escherichia coli TOP10 Read-out: shrunken log2 fold change Value: ?
Ans. 0.672

Qu. Hello, I am looking for reported shrunken log2 fold change with Escherichia coli TOP10 for "RRIRFRPPRLPRPRPRPQHGPRP" . Could you help?
Ans. -0.126

Qu. # get_value(readout= shrunken log2 fold change, system= Escherichia coli TOP10) for "RRIRARPPRLPRPRPRPNCSPRP"
Ans. 0.179

Qu. Find shrunken log2 fold change (Escherichia coli TOP10) for the entry "RRIRHRPPRLPRPRPRPDPRPRP"
Ans. 0.0959

Qu. What reported shrunken log2 fold change corresponds to "RRIRMRPPRLPRPRPRPYEAPRP" on Escherichia coli TOP10?
Ans. 0.029

Qu. // map "RRIRTRPPRLPRPRPRPGQQPRP" to recorded shrunken log2 fold change (system: Escherichia coli TOP10)
Ans. -0.0603

Qu. Form: Entry = "RRIRCRPPRLPRPRPRPKDNPRP" | System = Escherichia coli TOP10 | shrunken log2 fold change = ____
Ans. -0.273

Qu. Entry "RRIRQRPPRLPRPRPRPDVCPRP" , system Escherichia coli TOP10: what shrunken log2 fold change was measured?
Ans. 0.13

Qu. Query shrunken log2 fold change on Escherichia coli TOP10 for "RRIRQRPPRLPRPRPRPQKLPRP"
Ans. -0.0725

Qu. Provide the documented shrunken log2 fold change with Escherichia coli TOP10 as the system for "RRIRYRPPRLPRPRPRPHTFPRP"
Ans. -0.14

Qu. Identify the measured shrunken log2 fold change of "RRIRWRPPRLPRPRPRPMHPPRP" for Escherichia coli TOP10.
Ans. 0.224

Qu. Lookup: shrunken log2 fold change / Escherichia coli TOP10 / "RRIRPRPPRLPRPRPRPGGAPRP"
Ans. 0.47

Qu. For the record "RRIRVRPPRLPRPRPRPPYGPRP" , what value of shrunken log2 fold change is listed for Escherichia coli TOP10?
Ans. 0.024

Qu. Give recorded shrunken log2 fold change with Escherichia coli TOP10 for the following sequence: "RRIRGRPPRLPRPRPRPTIAPRP"
Ans. 0.895

Qu. Quick check: shrunken log2 fold change on Escherichia coli TOP10, item "RRIRVRPPRLPRPRPRPRALPRP" ?
Ans. 0.307

Qu. Enter reported shrunken log2 fold change observed with Escherichia coli TOP10 for "RRIRTRPPRLPRPRPRPPHGPRP"
Ans. -0.228

Qu. // fetch Escherichia coli TOP10 shrunken log2 fold change for "RRIRLRPPRLPRPRPRPVHKPRP"
Ans. -0.256

Qu. Value wanted: shrunken log2 fold change (Escherichia coli TOP10) of entry "RRIRWRPPRLPRPRPRPSSMPRP"
Ans. -0.411

Qu. Hi! What's the reported shrunken log2 fold change for "RRIRHRPPRLPRPRPRPPKWPRP" on Escherichia coli TOP10?
Ans. 0.345

Qu. API: value(readout= shrunken log2 fold change, system= Escherichia coli TOP10, query= "RRIRSRPPRLPRPRPRPHITPRP" )
Ans. -0.734

Qu. Lab note: need shrunken log2 fold change for "RRIRERPPRLPRPRPRPSTWPRP" on Escherichia coli TOP10, anyone have it?
Ans. -0.651

Qu. // map "RRIRARPPRLPRPRPRPFTSPRP" to recorded shrunken log2 fold change (system: Escherichia coli TOP10)
Ans. 0.0705

Qu. // fetch Escherichia coli TOP10 shrunken log2 fold change for "RRIRCRPPRLPRPRPRPPQGPRP"
Ans. 0.29

Qu. Requested read-out shrunken log2 fold change, target or system Escherichia coli TOP10, entry "RRIRWRPPRLPRPRPRPKGPPRP"
Ans. 3.65

Qu. Give recorded shrunken log2 fold change with Escherichia coli TOP10 for the following sequence: "RRIRSRPPRLPRPRPRPQQVPRP"
Ans. 0.0131

Qu. API: value(readout= shrunken log2 fold change, system= Escherichia coli TOP10, query= "RRIRRRPPRLPRPRPRPSIDPRP" )
Ans. -0.107

Qu. Return shrunken log2 fold change measured with Escherichia coli TOP10 given this sequence: "RRIRHRPPRLPRPRPRPHIGPRP"
Ans. -0.0123

Qu. Recorded shrunken log2 fold change for "RRIRPRPPRLPRPRPRPTCDPRP" with Escherichia coli TOP10, please?
Ans. 0.052

Qu. Lab note: need shrunken log2 fold change for "RRIRMRPPRLPRPRPRPSMMPRP" on Escherichia coli TOP10, anyone have it?
Ans. 0.0163

Qu. Report shrunken log2 fold change for "RRIRCRPPRLPRPRPRPFDDPRP" tested on Escherichia coli TOP10.
Ans. 0.0116

Qu. Form: Entry = "RRIRMRPPRLPRPRPRPREEPRP" | System = Escherichia coli TOP10 | shrunken log2 fold change = ____
Ans. 1.41

Qu. State its shrunken log2 fold change on Escherichia coli TOP10: "RRIRARPPRLPRPRPRPTDVPRP"
Ans. 0.141

Qu. Find the measured shrunken log2 fold change: item "RRIRGRPPRLPRPRPRPNFWPRP" , target or system Escherichia coli TOP10.
Ans. 0.544

Qu. Which shrunken log2 fold change is reported with Escherichia coli TOP10 for this entry: "RRIRDRPPRLPRPRPRPSYGPRP" ?
Ans. -0.0489

---

# System: Escherichia coli TOP10;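 also: peptides expressed intracellularly from a pBAD plasmid library in pooled LB shake-flask culture, induced with 0.3% L-arabinose, DNA abundance read by NGS, three biological replicates, DESeq2 with apeglm shrinkage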
# Protocol Notes: shrunken log2 fold change of peptide-encoding DNA abundance (4.5 h post-induction vs induction); higher = less antimicrobial activity (less host growth inhibition)
# Condition: time post-induction: 4.5 h; library: site-saturation at positions 5, 18, 19, 20
Decide using shrunken log2 fold change: a value greater than or equal to -0.04 is True, a smaller one is False.

Qu. Reported shrunken log2 fold change reaches at least -0.04 for "RRIRNRPPRLPRPRPRPLRCPRP" ?
Ans. True

Qu. Answer whether shrunken log2 fold change of "RRIRRRPPRLPRPRPRPAGVPRP" is greater than or equal to -0.04.
Ans. True

Qu. Given "RRIRYRPPRLPRPRPRPDYPPRP" , state whether its shrunken log2 fold change is at least -0.04.
Ans. False

Qu. Is reported shrunken log2 fold change greater than or equal to -0.04 here: "RRIRNRPPRLPRPRPRPARPPRP"
Ans. True

Qu. hey, is shrunken log2 fold change for this one >= -0.04? "RRIRNRPPRLPRPRPRPYYMPRP"
Ans. False

Qu. Check if shrunken log2 fold change >= -0.04 (inclusive). Item: "RRIRCRPPRLPRPRPRPDVHPRP"
Ans. False

Qu. Answer whether shrunken log2 fold change of "RRIRRRPPRLPRPRPRPKCLPRP" is greater than or equal to -0.04.
Ans. True

Qu. Is shrunken log2 fold change for "RRIRKRPPRLPRPRPRPIGIPRP" at or above -0.04?
Ans. True

Qu. Kindly determine if shrunken log2 fold change recorded for "RRIRERPPRLPRPRPRPILMPRP" is above or exactly -0.04.
Ans. False

Qu. Textbook exercise: given the entry "RRIRARPPRLPRPRPRPGGTPRP" , state whether its shrunken log2 fold change is greater than or equal to -0.04.
Ans. True

Qu. Item "RRIRIRPPRLPRPRPRPIWRPRP" with shrunken log2 fold change of -0.04 or above?
Ans. True

Qu. Is shrunken log2 fold change at least -0.04? Consider "RRIRWRPPRLPRPRPRPTRDPRP"
Ans. True

Qu. # check: shrunken log2 fold change of "RRIRRRPPRLPRPRPRPSYWPRP" is greater than or equal to -0.04
Ans. True

Qu. Threshold query (shrunken log2 fold change >= -0.04) on "RRIRYRPPRLPRPRPRPEAVPRP"
Ans. True

Qu. I'd appreciate it if you could say whether "RRIRWRPPRLPRPRPRPYSDPRP" has shrunken log2 fold change at least equal to -0.04.
Ans. False

Qu. shrunken log2 fold change >= -0.04 for "RRIRYRPPRLPRPRPRPEKLPRP" ?
Ans. True

Qu. Entry "RRIRYRPPRLPRPRPRPLGFPRP" : is its shrunken log2 fold change no less than -0.04?
Ans. False

Qu. Hi, just wondering whether "RRIRFRPPRLPRPRPRPELEPRP" shows shrunken log2 fold change of -0.04 or higher.
Ans. True

Qu. # check: shrunken log2 fold change of "RRIRARPPRLPRPRPRPEWHPRP" is greater than or equal to -0.04
Ans. True
